# test: NCI Yeast Anticancer Drug Screen. Data for the mec2-1 strain (AID 157)
# conditions_used: S. cerevisiae mec2-1 strain, at 50.0 µM, stronger effect = higher value
Compounds without any hit were thinned out: in the full panel of roughly 79,000, 15% have a hit. Active and inactive are the calls of the source. Cut-off read from the data, not from the text of the source: active = growth inhibition above about 70%; inactive = the rest.
Kindly state growth inhibition for each of the entries shown.

Reference set (5 entries):
CC(N(N=O)c1cccc(Cl)c1)S(=O)(=O)O (stereo not drawn) = 4.8% (inactive)
O=C(NNC1=NCCCCN1)Nc1ccc(Cl)cc1 = 6.8% (inactive)
COC(=O)C1CCC(=O)C(Sc2ccccc2)C1 (stereo not drawn) = -11.9% (inactive)
O=C(O)C1CCCCC1C(=O)Nc1cccc2ccccc12 (stereo not drawn) = -2.8% (inactive)
N[N+]1(CCS(N)(=O)=O)CCOCC1 = -12.6% (inactive)

Report growth inhibition for each item below.
1. CC1(O)C2C3C(I)C4C5C3C1C5C42 (stereo not drawn)
2. CC(C)c1ccc(C=O)cc1

1: 9.05% (inactive); 2: 31% (inactive)

src = PubChem BioAssay (NCI)
